- assayTarget: GLS1 (purified recombinant human GAC) (Homo sapiens)
- Sequence (O94925 55-598 isoform O94925-3 limits assumed): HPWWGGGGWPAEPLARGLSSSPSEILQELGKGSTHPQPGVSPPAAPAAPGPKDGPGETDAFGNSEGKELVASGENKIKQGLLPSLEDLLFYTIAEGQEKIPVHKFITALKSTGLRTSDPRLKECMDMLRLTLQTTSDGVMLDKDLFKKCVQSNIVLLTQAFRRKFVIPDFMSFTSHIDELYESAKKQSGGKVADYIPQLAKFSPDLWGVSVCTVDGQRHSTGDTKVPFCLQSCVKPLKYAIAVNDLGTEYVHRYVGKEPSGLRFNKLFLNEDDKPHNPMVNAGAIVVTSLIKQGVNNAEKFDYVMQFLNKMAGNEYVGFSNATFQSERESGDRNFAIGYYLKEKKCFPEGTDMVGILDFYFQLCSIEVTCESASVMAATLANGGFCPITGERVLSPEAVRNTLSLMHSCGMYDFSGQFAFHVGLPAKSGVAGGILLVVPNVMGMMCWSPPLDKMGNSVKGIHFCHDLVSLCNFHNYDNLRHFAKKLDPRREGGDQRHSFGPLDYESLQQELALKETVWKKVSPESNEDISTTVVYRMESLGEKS
- methodNotes: GLS1 enzymatic activity assay (dual-coupled, Amplex UltraRed/resorufin)
propertyLabel: IC50

Answered cases to consult:
INSERT INTO measurements (molecule, reported) VALUES
  ('O=C(Nc1ccn(CCC(F)Cn2cc(C(=O)NCc3cccc(OC(F)(F)F)c3)nn2)c(=O)c1F)C(=O)N1CC2(CCC2)C1 (stereo not shown) [Example 424]', '< 0.1 µM'),
  ('O=C(CC1CCC1)Nc1ccn(CCC(F)Cn2cc(C(=O)NCc3ccc(CF)nc3)nn2)c(=O)c1F (stereo not shown) [Example 374]', '< 0.1 µM'),
  ('O=C(NCc1cccc(OC(F)(F)F)c1)c1cn(CC(F)CCn2ccc(Cn3ccccc3=O)cc2=O)nn1 (stereo not shown) [Example 479]', '0.5 to 5 µM'),
  ('O=C(Nc1ccn(CCCCn2cc(C(=O)NCc3cccc(OC(F)(F)F)c3)nn2)c(=O)c1)OCc1ccccc1 [Example 42]', '< 0.1 µM'),
  ('O=C(CC1CCCC1)Nc1ccn(CCCCc2nnc(NC(=O)NCc3ccccc3)s2)c(=O)c1F [Example 130]', '< 0.1 µM'),
  ('O=C(CC1CCCC1)Nc1ccn(CCCCc2nnc(NC(=O)NCc3ccccn3)s2)c(=O)c1F [Example 131]', '< 0.1 µM');

Tell me its IC50 given O=C(Cc1ccccc1)Nc1ccn(CC[C@H](F)Cn2cc(C(=O)NCc3cc(C(F)(F)F)ccn3)nn2)c(=O)c1F [Example 125] as the entry.
< 0.1 µM
